- Procedure Summary: Agonist activity at FPR2 in mouse peritoneal macrophages assessed as stimulation of phagocytosis preincubated for 15 mins followed by FITC labeled zymosan addition and measured after 45 mins by Trypan blue staining based fluorescence assay
Quantity: EC50

Prompt: Value lookup for EC50; key = `COc1cc(F)c([C@@H]2CNC(=O)[C@H]2NC(=O)Nc2ccccc2)c(F)c1`
Response: < 1 nM

---

- Procedure Summary: Agonist activity at FPR2 in human HL-60 cells assessed as reduction in chemoattractant induced chemotaxis by luminescence cell viability assay
Quantity: IC50 (µM)
Answer in µM, number only, no unit symbol.

Prompt: Bench note: what IC50 did `COc1cc(F)c([C@@H]2CNC(=O)[C@H]2NC(=O)Nc2ccccc2)c(F)c1` show?
Response: 0.057
